Items are presented alongside their recorded IC50.
- TARGET_SYSTEM: MshC (Mycobacterium tuberculosis)
- TEST_DETAILS: biochemical
- Type: biochemical, M. tuberculosis
- TEST_SETTINGS: IC50

{"columns": ["MOLECULE", "IC50"],
 "data": [
  ["CC1CCCCN1CCNC(=O)c1ccc2c(c1)N(Cc1ccc(Cl)cc1)C(=O)c1ccccc1S2(=O)=O (centres unmarked)", "> 3000 µM"]
]}

Now consider the entry below.
Request: Please give the measured IC50 for this molecule: "Cc1ccc(C)c(CN2C(=O)c3ccccc3S(=O)(=O)c3ccc(C(=O)NCCCN4CCOCC4)cc32)c1"
Response: > 3000 µM

----------
- TARGET_SYSTEM: MshC (Mycobacterium tuberculosis, UniProt P9WJM9)
- TEST_DETAILS: biochemical
- Type: biochemical, M. tuberculosis
- TEST_SETTINGS: assayed under the conditions described in [0186]; read-out: IC50 (inhibits MshC)
MEASURED_ATTRIBUTE: IC50

Request: Please give the measured IC50 for this compound: Nc1ncnc2c1ncn2[C@@H]1O[C@H](COS(=O)(=O)NC(=O)[C@@H](N)CS)[C@@H](O)[C@H]1O [5′-O-[N-(L-cysteinyl)sulfamoyl]adenosine, reference compound]
Response: ~40 nM

----------
- TARGET_SYSTEM: MshC (Mycobacterium tuberculosis, UniProt P9WJM9)
- TEST_DETAILS: Inhibition studies of MshC ligase activity (HEPES pH 7.5, HPLC)
- Assay type: biochemical, M. tuberculosis
- TEST_SETTINGS: [inhibitor] 1600 μM; 50 μM GlcN-Ins and 70 μM Cys
MEASURED_ATTRIBUTE: % inhibition (%)
Quick note: give the figure in %, leave out the unit.

{"columns": ["MOLECULE", "% inhibition, %"],
 "data": [
  ["NCCS [cysteamine]", 65]
]}

Now consider the entry below.
Request: Please give the measured % inhibition for this molecule: N[C@@H](CCS)C(=O)O [L-homocysteine]
Response: 0

----------
- TARGET_SYSTEM: MshC (Mycobacterium tuberculosis, UniProt P9WJM9)
- TEST_DETAILS: biochemical
- Assay type: biochemical, M. tuberculosis
- TEST_SETTINGS: 50, 100 and 200 μM in 0.005% Triton X-100; reciprocal plot of velocity versus inhibitor concentration; read-out: IC50
MEASURED_ATTRIBUTE: IC50

Request: MshC (Mycobacterium tuberculosis, UniProt P9WJM9) / IC50 / CN(CCCNC(=O)c1ccc2c(c1)N(Cc1cccc(Cl)c1)C(=O)c1ccccc1[S+]2[O-])C1CCCCC1 (stereo not shown) : value?
Response: ~100 µM

----------
- TARGET_SYSTEM: MshC (Mycobacterium tuberculosis)
- TEST_DETAILS: biochemical
- Format: biochemical, M. tuberculosis
- TEST_SETTINGS: read-out: IC50 for MshC activity in an vitro enzyme assay
MEASURED_ATTRIBUTE: pIC50
Lab note — pIC50 values are minus log10 of concentrations in M.

Request: Please give the measured pIC50 for this molecule: CN(CCCNC(=O)c1ccc2c(c1)N(Cc1cccc(Cl)c1)C(=O)c1ccccc1[S+]2[O-])C1CCCCC1 (stereo not shown) [NTF1836]
Response: 4.00

----------
- TARGET_SYSTEM: MshC (Mycobacterium tuberculosis, UniProt P9WJM9)
- Sequence (P9WJM9 1-414): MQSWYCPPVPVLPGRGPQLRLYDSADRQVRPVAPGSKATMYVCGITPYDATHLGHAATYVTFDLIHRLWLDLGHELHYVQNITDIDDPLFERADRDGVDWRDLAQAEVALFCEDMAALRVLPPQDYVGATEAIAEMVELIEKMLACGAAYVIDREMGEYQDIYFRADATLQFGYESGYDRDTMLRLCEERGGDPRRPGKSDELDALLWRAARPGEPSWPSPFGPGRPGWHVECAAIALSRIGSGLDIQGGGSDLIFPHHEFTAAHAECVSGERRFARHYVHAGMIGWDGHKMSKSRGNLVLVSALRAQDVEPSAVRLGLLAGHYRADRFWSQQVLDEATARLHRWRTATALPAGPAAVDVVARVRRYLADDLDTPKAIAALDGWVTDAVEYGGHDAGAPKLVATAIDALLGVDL
- TEST_DETAILS: biochemical
- Format: biochemical, M. tuberculosis
- TEST_SETTINGS: IC50, μM
MEASURED_ATTRIBUTE: IC50

{"columns": ["MOLECULE", "TARGET_SYSTEM", "IC50"],
 "data": [
  ["CCCCN(C)CCCNC(=O)c1ccc2c(c1)N(Cc1cccc(Cl)c1)C(=O)c1ccccc1S2(=O)=O", "MshC (Mycobacterium tuberculosis, UniProt P9WJM9)", "1700 µM"],
  ["CCN1C(=O)c2ccccc2[S+]([O-])c2ccc(C(=O)NCCCN3CCOCC3)cc21 (stereo not shown)", "MshC (Mycobacterium tuberculosis, UniProt P9WJM9)", "> 3000 µM"]
]}

Now consider the entry below.
Request: MshC (Mycobacterium tuberculosis, UniProt P9WJM9) / IC50 / O=C(NCC1CCCN1)c1ccc2c(c1)N(Cc1cccc(Cl)c1)C(=O)c1ccccc1S2(=O)=O (stereo not shown) : value?
Response: 2300 µM
